Values compiled from patent US12110289B2.

- Tested on: pooled human hepatocytes
- assay-info: Human hepatocyte clearance study
- Type: in vitro ADME
- condition-description: working cell density 0.5 × 10^6 viable cells/mL
measured-property: Human Hepatocyte Remaining Percentage @ 120 min (%)
Supply the numeric figure in %, leaving out any unit text.

GET /value?item= C=CC(=O)N1C[C@H](C)N(c2nc(=O)n(-c3c(C(C)C)nc(OCCN(C)C)nc3C(C)C)c3nc(-c4ccccc4F)c(Cl)cc23)C[C@H]1C &field=Human Hepatocyte Remaining Percentage @ 120 min (%) returns 70.1

Entry C=CC(=O)N1CCN(c2nc(=O)n(-c3c(C4CC4)nc(OCCN(C)C)nc3C3CC3)c3nc(-c4ccccc4F)c(F)cc23)[C@@H](C)C1 — recorded Human Hepatocyte Remaining Percentage @ 120 min (%) = 90.6

The recorded Human Hepatocyte Remaining Percentage @ 120 min (%) for C=CC(=O)N1CCN(c2nc(=O)n(-c3c(C(C)C)nc(N)nc3C(C)C)c3nc(-c4ccccc4F)c(Cl)cc23)[C@@H](C)C1 is 33.4

====

- Test system: Lung cancer cell line NCI-H358 containing KRas G12C mutation
- assay-info: Assay for cell proliferation (Cell-titer Glo, 5 days)
- Assay type: cell-based, human
- condition-description: Homo sapiens, NCI-H358, 120 h, NCI-H358, 5 days, Cell-titer Glo; read-out: IC50 (nM), Inhibition of NCI-H358 Cell Proliferation
Would you kindly list IC50 for each of these compounds?
Include the unit after the number when you answer.

For record C=CC(=O)N1CCN(c2nc(=O)n(-c3c(C4CC4)nc(OCCN(C)C)nc3C3CC3)c3nc(-c4ccccc4F)c(Cl)cc23)[C@@H](C)C1 the listed IC50 is 6.7 nM

Lab note: C=CC(=O)N1CCN(c2nc(=O)n(-c3c(C4CC4)ncnc3C3CC3)c3nc(-c4ncccc4F)c(Cl)cc23)[C@@H](C)C1 gave IC50 of 130 nM

Value of measured IC50 for the entry C=CC(=O)N1CCN(c2nc(=O)n(-c3c(C4CC4)nc(N)nc3C3CC3)c3nc(-c4c(O)cccc4F)c(F)cc23)[C@@H](C)C1 : 32.1 nM

Entry under test: C=CC(=O)N1C[C@H](C)N(c2nc(=O)n(-c3c(C4CC4)nc(N4CCNCC4)nc3C3CC3)c3nc(-c4c(N)cccc4F)c(Cl)cc23)C[C@H]1C . Its IC50 was 4.6 nM

Item: C=CC(=O)N1CCN(c2nc(=O)n(-c3c(C(C)C)nc(OCCN(C)C)nc3C(C)C)c3nc(-c4c(N)cccc4F)c(Cl)cc23)[C@@H](C)C1 | IC50: 6.9 nM

Lookup result for C=CC(=O)N1C[C@H](C)N(c2nc(=O)n(-c3c(C(C)C)nc(N)nc3C(C)C)c3nc(-c4c(O)cccc4F)c(Cl)cc23)C[C@H]1C ; measured IC50: 5.2 nM

====

- Tested on: Lung cancer cell line NCI-H358 containing KRas G12C mutation
- assay-info: Assay for cell proliferation (Cell-titer Glo, 5 days)
- Type: cell-based, human
- condition-description: Homo sapiens, NCI-H358, 120 h, NCI-H358, 5 days, Cell-titer Glo; read-out: IC50 (nM), Inhibition of NCI-H358 Cell Proliferation
measured-property: IC50 (nM)
# unit: nM | format: bare number

The value of IC50 recorded for C=CC(=O)N1[C@H](C)CN(c2nc(=O)n(-c3c(C4CC4)nc(C)nc3C3CC3)c3nc(-c4ccccc4F)c(F)cc23)C[C@@H]1C [Compound 53] when tested on Lung cancer cell line NCI-H358 containing KRas G12C mutation reads 617

Form: item C=CC(=O)N1[C@H](C)CN(c2nc(=O)n(-c3c(C(C)C)nc(OCCN(C)C)nc3C(C)C)c3nc(-c4ccccc4F)c(Cl)cc23)C[C@@H]1C [Compound 31] ; test system Lung cancer cell line NCI-H358 containing KRas G12C mutation; IC50: 28.2

Summary line: C=CC(=O)N1C[C@H](C)N(c2nc(=O)n(-c3c(C4CC4)nc(N4CCNCC4)nc3C3CC3)c3nc(-c4c(O)cccc4F)c(Cl)cc23)C[C@H]1C [Compound 86] , Lung cancer cell line NCI-H358 containing KRas G12C mutation, reported IC50 = 8.6
